B1: TPR t1 (parent)
chain: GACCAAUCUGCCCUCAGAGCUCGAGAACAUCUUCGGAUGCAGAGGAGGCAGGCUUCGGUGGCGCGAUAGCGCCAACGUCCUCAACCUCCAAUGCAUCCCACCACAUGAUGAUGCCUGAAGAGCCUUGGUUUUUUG

variants of: B1; assay: polymerase ribozyme fitness, log enrichment relative to wild type (log ratio); higher = more active; in vitro selection for triplet polymerase activity
We begin with a simple list: items and their reported polymerase ribozyme fitness (log ratio).
# respond with the number and nothing more

Identify the reported polymerase ribozyme fitness (log ratio) for the following entry. A6U A26U G36C G63C
-5.14

Specify measured polymerase ribozyme fitness (log ratio) for C49A C56A U59A C73G C114A G128C .
-8.01

Find the measured polymerase ribozyme fitness (log ratio) of C12A C15U G71U A121C G127U and report it.
0.118

# return recorded polymerase ribozyme fitness (log ratio) for input U78C A103G U109A C114A A119C
-6.28

Specify measured polymerase ribozyme fitness (log ratio) for C49U G61C G71A A95G G113U .
-7.48

---
Read the entry G19A G36U and write its reported polymerase ribozyme fitness (log ratio).
-3.84

Fill in polymerase ribozyme fitness (log ratio) for record C3A A5U A29G U116C
-2.92

Report polymerase ribozyme fitness (log ratio) for C12U G42A A95U
-1.64

Let me know recorded polymerase ribozyme fitness (log ratio) for C13G G63A , thanks.
-2.24

Note polymerase ribozyme fitness (log ratio) for the variant shown: C22U G60A U96G
-4.57

Source: the RNAGym collection of RNA variant scans (doi:10.1073/pnas.2313332121)
